Attribution: PubChem BioAssay AID1159580

assay: chemical genetic growth profiling, strain panel (AID 1159580);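 also: tested at 20 µM; growth read once vehicle control cultures reached saturation at 30 °C; 1 = growth at the plate median or of vehicle wells; lower values mean less growth of the strain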; conditions: S. cerevisiae deletion strains, growth OD, locus YPR025C, strain CCL1, active compounds read low
About 2,000 (36%) of roughly 5,500 compounds were called active. About 18% were inconclusive and are not listed. This is one part of the list.
Each entry below carries its recorded normalized growth.
API doc: respond with a numeric literal and nothing else, no unit.

Worked cases, normalized growth given:
> print(dat)
                           molecular.string  value.observed
1             Cc1cc(Cl)ccc1NNC(=O)c1sccc1Cl           0.902
2  FC(F)(F)c1ccc(N2CCc3ccccc3C2)c(NC(=S)Nc2cc(Cl)cc(Cl)c2)c1           0.967
3              O=C(NNc1ccc(F)cc1F)c1sccc1Cl           0.978
4  O=S(=O)(CS(=O)(=O)Oc1ccc(Cl)c(Cl)c1)Oc1ccc(Cl)c(Cl)c1           0.956

Q: Looking for the measured normalized growth of OC(COc1ccc(F)cc1)(c1ccccc1)c1ccccc1 , can you help?
Ans: 0.954

Q: Using the record for CCCCNC(=S)N/N=C\c1cc(Cl)cc(Cl)c1O , report its normalized growth.
Ans: 0.931

###

experiment: chemical genetic growth profiling, strain panel (AID 1159580);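 also: tested at 20 µM; growth read once vehicle control cultures reached saturation at 30 °C; 1 = growth at the plate median or of vehicle wells; lower values mean less growth of the strain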; details: S. cerevisiae deletion strains, growth OD, locus YER111C, strain swi4
About 2,000 (36%) of roughly 5,500 compounds were called active. About 18% were inconclusive and are not listed. Rule as the data show it: active = normalized growth mostly below about 0.91 (no sharp cut-off); inconclusive = no clear call, values can overlap the other calls; inactive = mostly above about 0.92. This is one part of the list. Where a SMILES comes first, the peptide text is derived from it.
Output constraint: value belongs to active, inactive

Q: Could you kindly confirm the outcome this assay logged for Cc1cc(OC(=O)c2c(C)cc(O)cc2O)cc(O)c1C(=O)O ?
Ans: inactive

Q: Please indicate how the test categorized CCCCCc1c2c(cc(O)c1C(=O)O)OC(=O)c1c(cc(OC)cc1C(=O)CCCC)O2 .
Ans: inactive

Q: I would be grateful if you could indicate the recorded call for COC(=O)[C@H](Cc1ccccc1)NC(=O)[C@@H](N)CC(=O)O (H-Asp-Phe-OMe) .
Ans: inactive

Q: Which outcome did this test record for the compound CN(C)c1ccc2nc3ccc(=[N+](C)C)cc-3sc2c1 ?
Ans: inactive

Q: Just curious, what result did CCC(=O)c1c(O)cc(O)cc1O get here?
Ans: inactive

Q: Short answer needed: outcome of this test for C[C@@H]([C@H](O)c1ccccc1)N(C)C ?
Ans: inactive

Q: Please let me know the test result on file for COc1cc(OC)c2c(=O)c(OC)c(-c3ccc(OC)c(OC)c3)oc2c1 .
Ans: inactive

Q: // return assay outcome for CC(=O)OCC1=C(C(=O)O)N2C(=O)[C@@H](NC(=O)Cc3cccs3)[C@H]2SC1
Ans: inactive

Q: Please let me know the test result on file for CCCCC1C(=O)N(c2ccccc2)N(c2ccc(O)cc2)C1=O (centres undefined) .
Ans: inactive

Q: Given O=c1c(O)c(-c2ccc(O)c(O)c2)oc2cc(O)cc(O)c12 , state the outcome it received in this test.
Ans: active

Q: Please let me know the test result on file for O=c1ccc2cc(OC3OC(CO)C(O)C(O)C3O)c(O)cc2o1 (centres undefined) .
Ans: inactive

Q: Please let me know the test result on file for COc1ccc(-c2oc3c(CC=C(C)C)c(O[C@@H]4O[C@H](CO)[C@@H](O)[C@H](O)[C@H]4O)cc(O)c3c(=O)c2O[C@@H]2O[C@@H](C)[C@H](O)[C@@H](O)[C@H]2O)cc1 .
Ans: inactive

Q: Lab log entry: COc1cccc2c(C)cc(=O)[nH]c12 — outcome as called in the assay?
Ans: inactive

Q: What did this assay record as the result for O=C(O[C@@H]1Cc2c(O)cc(O)cc2O[C@@H]1c1cc(O)c(=O)c2c(O)c(O)cc([C@H]3Oc4cc(O)cc(O)c4C[C@H]3OC(=O)c3cc(O)c(O)c(O)c3)c2c1)c1cc(O)c(O)c(O)c1 ?
Ans: active

Q: Record request — test call for C[C@H]1O[C@H](OC2[C@@H](O)[C@@H](O)C(O)[C@H](O)[C@H]2O)[C@@H](N)C[C@@H]1N=C(N)C(=O)O (some centres undefined)
Ans: inactive

Q: // return assay outcome for OC1CC2CCCC(C1)N2Cc1ccccc1 (centres undefined)
Ans: inactive

Q: Could you kindly confirm the outcome this assay logged for O=C(OC1Cc2c(O)cc(O)cc2OC1c1cc(=O)c(O)c2c(O)c(O)cc(C3Oc4cc(O)cc(O)c4CC3O)c2c1)c1cc(O)c(O)c(O)c1 (centres undefined) ?
Ans: active

Q: What call does the record list for CCC(c1ccc(O)cc1)C(CC)c1ccc(O)cc1 (centres undefined) ?
Ans: inactive

Q: Which result was noted for this compound in the test: CCCC(C)(COC(N)=O)COC(=O)NC(C)C (centres undefined)
Ans: inactive

Q: Which outcome did this test record for the compound CCOC(=O)c1c(C)cc(OC)cc1O ?
Ans: inactive

Q: What outcome does the record of this test show for CO[C@@]1(NC(=O)C(C(=O)O)c2ccc(O)cc2)C(=O)N2C(C(=O)O)=C(CSc3nnnn3C)CO[C@@H]21 (some centres undefined) ?
Ans: inactive
